Please respond with reported IC50 for every item in the list.
Biological target: SpsB (Staphylococcus aureus signal peptidase) (Staphylococcus aureus, UniProt P0A070)
Construct: This assay uses a suspension of Staphylococcus aureus cells as a source of SpsB instead of recombinant SpsB protein; endogenous in cells; host or cells: S. aureus, USA300 background, overexpressing SpsB (whole-cell suspension from frozen pellets)
Sequence (P0A070 whole entry): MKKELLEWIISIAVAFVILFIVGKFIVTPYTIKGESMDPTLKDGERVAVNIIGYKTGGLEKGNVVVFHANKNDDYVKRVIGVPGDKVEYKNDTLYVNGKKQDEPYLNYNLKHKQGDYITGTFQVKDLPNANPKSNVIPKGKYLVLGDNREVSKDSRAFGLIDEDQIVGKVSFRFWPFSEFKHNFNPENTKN
Experiment: cell-based
Assay type: biochemical
Settings: SpsB IC50, whole-cell S. aureus (USA300 background, overexpressing SpsB) as SpsB source; fluorogenic peptide substrate, kinetic read 30 min
Experimental: A kinetic fluorogenic enzyme activity assay was used to assess inhibition of SpsB (Staphylococcus aureus signal peptidase) activity and IC50s were determined. This assay uses a suspension of Staphylococcus aureus cells as a source of SpsB instead of recombinant SpsB protein. Cell preparation: Luria broth (LB) was inoculated with S. aureus (USA300 background, overexpressing SpsB) and shaken at 37° C. until an OD600 nm of 1.5-2.0 was reached (˜4 hr). […]
Answers are plain numbers, in nM.

C[C@@H]1NC(=O)[C@@H](N(C)C(=O)[C@H](CCN)NC(=O)/C=C/c2ccc(-c3ccc(Cl)cc3)cc2)c2ccc(OCCN)c(c2)-c2cc(ccc2OCCN)C[C@@H](C(=O)NCC#N)NC1=O [Compound 427]: 1.2
CCCCCCCc1ccc(C(=O)N[C@@H](CCN)C(=O)N(C)[C@@H]2C(=O)N[C@@H](C)C(=O)N[C@H](C(=O)NCC#N)Cc3ccc(OCCN)c(c3)-c3cc2ccc3OCCN)c(C(F)(F)F)c1 [Compound 191]: 0.62

Report IC50 for each item below.
1. CCCCCCCCCCNCC(=O)N(C)[C@@H]1C(=O)N[C@@H](C)C(=O)N[C@H](C(=O)NCC#N)Cc2ccc(OCCN)c(c2)-c2cc1ccc2OCCN [Compound 132]
2. Cc1cc(C(C)(C)C)ccc1C(=O)N[C@@H](CCN)C(=O)N(C)[C@@H]1C(=O)N[C@@H](C)C(=O)N[C@H](C(=O)NCC#N)Cc2ccc(OCCN)c(c2)-c2cc1ccc2OCCN [Compound 266]
3. CCCCCCCCCCCC(=O)N[C@H](C(=O)N(C)[C@@H]1C(=O)N[C@@H](C)C(=O)N[C@H](C(=O)NCC#N)Cc2ccc(OCCN)c(c2)-c2cc1ccc2OCCN)[C@@H](C)O [Compound 256]

0.71
2.1
0.8
